- System under test: SFN 14-3-3 (14-3-3 protein sigma) (human) (UniProt P31947)
- Sequence (P31947 whole entry, the tested form may be a part): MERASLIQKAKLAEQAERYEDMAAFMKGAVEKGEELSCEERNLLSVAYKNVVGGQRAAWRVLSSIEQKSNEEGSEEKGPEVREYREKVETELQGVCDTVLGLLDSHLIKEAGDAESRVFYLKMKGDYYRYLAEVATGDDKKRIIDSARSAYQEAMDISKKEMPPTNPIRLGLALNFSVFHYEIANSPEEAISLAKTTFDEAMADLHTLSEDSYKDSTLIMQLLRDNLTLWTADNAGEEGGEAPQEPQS
- Measurement notes: fluorescence polarisation; competition: unlabelled peptide in serial dilution against the protein domain (master mix at four times the KD) with its FITC-labelled probe peptide; 50 mM KPO4 or NaPO4 pH 7.5; Ki calculated from IC50
Measurement type: IC50 (µM)
Numeric answer only, unit µM assumed.

Req: I would be grateful if you could share the reported IC50 for Ac-NEPTTPSWLADIPPWVP-NH2 [MAP1A 1831-1847 peptide] .
Resp: 1970
